System: HOP-62 NSCLC
Assay details: NCI-60 one-dose screen, 48 h
Run conditions: 10 µM
The panel holds about 83,000 compounds, 20% with a hit somewhere; the sample as a whole holds those more often. Activity calls are given as the source filed them. Rule for the calls: active = growth percent below 10; inactive = the rest.
Outcome codes: label 1 = active, label 0 = inactive

>  <Compound>
O=C(COc1ccc(NC(=O)Nc2ccc(Cl)cc2)cc1)N=Nc1c(O)[nH]c2ccc([N+](=O)[O-])cc12

>  <Label value>
label 0

$$$$
>  <Compound>
COc1ccc(-c2nc(S(=O)(=O)c3ccccc3)c(S(C)(=O)=O)o2)cc1

>  <Label value>
label 0

$$$$
>  <Compound>
CCCCSc1nc(Nc2ccc(/C(C)=N/NC(N)=S)cc2)c(C#N)c(-c2ccc(F)cc2)n1

>  <Label value>
label 0

$$$$
>  <Compound>
COC1=C[C@@]23CCC(=O)N2CCc2cc4c(cc2[C@H]3[C@H]1OC(=O)C(C)(C)O)OCO4

>  <Label value>
label 0

$$$$
>  <Compound>
C=C1CCC2C3(C)COC(c4cc(F)cc(F)c4)OC3CCC2(C)C1C/C=C1/C(=O)OCC1O (centres undefined)

>  <Label value>
label 1

$$$$
>  <Compound>
Cc1cc(=O)oc2cc(OCCCCOc3ccc(/C=C/C(=O)Nc4ccccc4[N+](=O)[O-])cc3)ccc12

>  <Label value>
label 0

$$$$
>  <Compound>
COc1nccnc1NS(=O)(=O)c1ccc(NC2=C(Cl)C(=O)c3nc(C)ccc3C2=O)cc1

>  <Label value>
label 0

$$$$
>  <Compound>
COc1cc(/C=C/C(=O)c2ccc(F)cc2)ccc1Oc1nc(Nc2ccc(F)cc2)nc(N(C)C)n1

>  <Label value>
label 0

$$$$
>  <Compound>
N#Cc1c(NC(=O)c2cccc(C(F)(F)F)c2)sc2c1CCC(O)=C2

>  <Label value>
label 0

$$$$

---

Test system: T-47D breast
Assay details: NCI-60 one-dose screen, 48 h (100 = growth as untreated, 0 = no growth, -100 = all killed)
Run conditions: 10 µM
This is part of a sample that, as a whole, favours compounds with a hit. Of some 83,000 tested, about 20% had one in any assay.
Reported growth values for a set of molecules

>  <Molecule>
COc1ccccc1C(=O)NNC(=O)CSc1nc2c(c(=O)[nH]1)CCCC2

>  <Readout unit>
%

>  <growth>
81.2

$$$$
>  <Molecule>
O=c1cc(-c2ccccc2)oc2cc(OCCCCNCc3ccccc3)cc(O)c12

>  <Readout unit>
%

>  <growth>
-70.7

$$$$
>  <Molecule>
Cc1ccc(/C=C(\C#N)n2nnc3c(F)cccc32)cc1

>  <Readout unit>
%

>  <growth>
24.5

$$$$
>  <Molecule>
O=C(NC(=S)N1CCN(c2ncnc3c2cnn3-c2ccccc2)CC1)c1ccc(Cl)cc1

>  <Readout unit>
%

>  <growth>
57.2

$$$$
>  <Molecule>
Cc1cc(=O)oc2cc(OCCCCOc3ccc(/C=C/C(=O)Nc4cccc(Cl)c4)cc3)ccc12

>  <Readout unit>
%

>  <growth>
24.5

$$$$
>  <Molecule>
Cc1ccc(CNC(=O)Cc2ccc3c(c2)CN(C2CCC(=O)NC2=O)C3=O)cc1 (stereo not given)

>  <Readout unit>
%

>  <growth>
-4

$$$$
>  <Molecule>
Cc1cc2c(c(O)c1Br)-c1ncoc1C(=O)[C@]1(C)CC[C@H](C(C)C)[C@H]21

>  <Readout unit>
%

>  <growth>
20.6

$$$$
>  <Molecule>
COC(=O)c1c(C(=O)OC)c2n(c1C)[C@@H]([C@@H](C)[C@H]1CC[C@H]3[C@@H]4CCC5=CC(=O)CC[C@]5(C)[C@H]4CC[C@]13C)SC2

>  <Readout unit>
%

>  <growth>
4.62

$$$$
>  <Molecule>
Cc1cc(C)cc(Oc2cccc(-c3c(C)nnn3C3CCN(CCN(C)C)CC3)n2)c1

>  <Readout unit>
%

>  <growth>
24.8

$$$$
>  <Molecule>
CO[C@H]1CSS[C@@H]1Cn1nc(-c2ccc(Oc3ccccc3)cc2)c2c(N)ncnc21

>  <Readout unit>
%

>  <growth>
2.61

$$$$

---

Test system: SW-620 colon
Assay details: NCI-60 one-dose screen, 48 h (100 = growth as untreated, 0 = no growth, -100 = all killed)
Run conditions: 10 µM
About 83,000 compounds went through this panel and 20% of them were active in at least one assay; those are over-represented in the sample as a whole.

>  <Compound>
Cc1cc(=O)oc2cc(OCCCCOc3ccc(/C=C/C(=O)Nc4ccccc4[N+](=O)[O-])cc3)ccc12

>  <Readout unit>
%

>  <growth>
114

$$$$
>  <Compound>
Cc1ccc(C(=O)NCCCNc2nc(Nc3ccc(N4CCN(C)CC4)cc3)nc3ccsc23)cc1

>  <Readout unit>
%

>  <growth>
31.6

$$$$
>  <Compound>
O=C(CSc1nnc(-c2ccc3nc(-c4ccccc4)[nH]c3c2)o1)Nc1ccc(Br)cc1

>  <Readout unit>
%

>  <growth>
2.94

$$$$
>  <Compound>
C=C1CCC2C3(C)COC(c4cc(F)cc(F)c4)OC3CCC2(C)C1C/C=C1/C(=O)OCC1O (stereo not given)

>  <Readout unit>
%

>  <growth>
-61.9

$$$$
>  <Compound>
CCCS(=O)(=O)c1oc(-c2ccc(F)cc2)nc1S(=O)(=O)c1ccc(F)cc1

>  <Readout unit>
%

>  <growth>
-77.6

$$$$

---

System: NCI-H460 lung
Assay details: NCI-60 one-dose screen, 48 h
Run conditions: 10 µM
About 83,000 compounds went through this panel and 20% of them were active in at least one assay; those are over-represented in the sample as a whole. The source made the active and inactive calls. Rule for the calls: active = growth percent below 10; inactive = the rest.
Outcome codes: true (1) for active, false (0) for inactive

>  <Compound>
O=C(CSc1nnc(-c2ccc3nc(-c4ccccc4)[nH]c3c2)o1)Nc1ccc(Cl)cc1

>  <Assayed target>
NCI-H460 lung

>  <Label value>
false (0)

$$$$
>  <Compound>
Cn1cc(-c2cc(N)n3nc(-c4c[nH]c5ccc(Br)cc45)cc3n2)c2cc(Br)cnc21

>  <Assayed target>
NCI-H460 lung

>  <Label value>
true (1)

$$$$
>  <Compound>
O=C(Nc1ccc(I)cc1F)c1cc(-c2ccc(F)cc2F)ccc1O

>  <Assayed target>
NCI-H460 lung

>  <Label value>
true (1)

$$$$
>  <Compound>
N#Cc1c(-c2ccc(F)cc2)nc(SCc2ccc(F)cc2)nc1N1CCOCC1

>  <Assayed target>
NCI-H460 lung

>  <Label value>
false (0)

$$$$
>  <Compound>
COc1cccc2nc(Nc3ccc(F)c(NC(=O)c4ccc(CN5CCN(C)CC5)c(C(F)(F)F)c4)c3)ccc12

>  <Assayed target>
NCI-H460 lung

>  <Label value>
true (1)

$$$$
>  <Compound>
COc1cc(/C=C/C(=O)c2ccc(S(=O)(=O)NCCNc3nc(Nc4ccc(F)cc4)nc(N(C)C)n3)cc2)cc(OC)c1OC

>  <Assayed target>
NCI-H460 lung

>  <Label value>
false (0)

$$$$
>  <Compound>
CN1C(=O)/C(=C/c2nccs2)SC1=S

>  <Assayed target>
NCI-H460 lung

>  <Label value>
false (0)

$$$$
>  <Compound>
CCCCCc1ccc(S(=O)(=O)Nc2cc(-c3csc(N(C)C(C)=O)n3)ccc2N2CCN(C)CC2)cc1

>  <Assayed target>
NCI-H460 lung

>  <Label value>
false (0)

$$$$
>  <Compound>
CONC[C@]1(C)C=C2C(=O)[C@](C)(O)C3(CC3)C(C)=C2[C@H]1O

>  <Assayed target>
NCI-H460 lung

>  <Label value>
true (1)

$$$$
>  <Compound>
COc1ccc(-c2cc(C(=O)N=Nc3c(O)[nH]c4ccccc34)c3ccccc3n2)cc1

>  <Assayed target>
NCI-H460 lung

>  <Label value>
true (1)

$$$$
>  <Compound>
COc1ccc2c3nc4cc(C)c(C)cc4nc3n(CCN(C)C)c2c1

>  <Assayed target>
NCI-H460 lung

>  <Label value>
true (1)

$$$$
>  <Compound>
CC1(C)CC[C@]2(C(=O)NCCCNCCCCNCCCN)CC[C@]3(C)C(=CC[C@@H]4[C@@]5(C)Cc6c([nH]c7ccccc67)C(C)(C)[C@@H]5CC[C@]43C)[C@H]2C1

>  <Assayed target>
NCI-H460 lung

>  <Label value>
false (0)

$$$$
>  <Compound>
CC(=O)c1ccc(NC(=O)NCn2c(=O)[nH]c3ccccc3c2=O)cc1

>  <Assayed target>
NCI-H460 lung

>  <Label value>
false (0)

$$$$
>  <Compound>
O=C(/C=C/Nc1ccc(F)cc1F)c1ccc2c(c1)Nc1ccccc1S2

>  <Assayed target>
NCI-H460 lung

>  <Label value>
false (0)

$$$$
>  <Compound>
CN(C)c1ccc(/C=C/c2nc3ccccc3c(=O)n2CC(=O)Nc2ccc(Cl)cc2)cc1

>  <Assayed target>
NCI-H460 lung

>  <Label value>
false (0)

$$$$
>  <Compound>
Cc1ccc(/C(N)=N/c2sc(-c3ccccc3)nc2-c2ccccc2)cc1

>  <Assayed target>
NCI-H460 lung

>  <Label value>
false (0)

$$$$
>  <Compound>
CC1(C)CC[C@]2(C(=O)O)CC[C@]3(C)C(=CC[C@@H]4[C@@]5(C)C/C(=C/c6ccncc6)[C@H](O)C(C)(C)[C@@H]5CC[C@]43C)[C@@H]2C1

>  <Assayed target>
NCI-H460 lung

>  <Label value>
false (0)

$$$$
>  <Compound>
COc1ccc([C@H]2C(C(=O)c3ccc(Cl)cc3)C3(N[C@@H]2c2ccccc2)C(=O)Nc2ccc(Cl)cc23)cc1 (stereo not given in full)

>  <Assayed target>
NCI-H460 lung

>  <Label value>
true (1)

$$$$
>  <Compound>
CC1CC(c2ccc(N(C)C)cc2)=NN1c1nc(O)c(C2=c3cc(Br)ccc3=NC2=O)s1 (stereo not given)

>  <Assayed target>
NCI-H460 lung

>  <Label value>
false (0)

$$$$
>  <Compound>
CC(C)C1=C[C@@]23CC[C@@H]4[C@](C)(CCC[C@]4(C)C(=O)NCc4ccccc4)[C@H]2C[C@@H]1[C@H]1C(=O)OC(=O)[C@H]13

>  <Assayed target>
NCI-H460 lung

>  <Label value>
false (0)

$$$$
>  <Compound>
COc1ccc2ncc(C#Cc3cncc(C(=O)Nc4ccc(CN5CCN(C)CC5)c(C(F)(F)F)c4)c3)n2n1

>  <Assayed target>
NCI-H460 lung

>  <Label value>
true (1)

$$$$
>  <Compound>
O=S(=O)(c1ccc(Cl)cc1)c1nc(-c2ccccc2)oc1S(=O)(=O)c1ccc(Cl)cc1

>  <Assayed target>
NCI-H460 lung

>  <Label value>
false (0)

$$$$
>  <Compound>
Cc1ccc(-c2cc(-c3cc4ccccc4nc3Cl)[nH]c(=O)n2)cc1

>  <Assayed target>
NCI-H460 lung

>  <Label value>
true (1)

$$$$
>  <Compound>
Cc1ccn2c(C(=O)c3ccccc3)cc(-c3cc(-c4ccc(N(C)C)cc4)c(C#N)c(N)n3)c2c1

>  <Assayed target>
NCI-H460 lung

>  <Label value>
false (0)

$$$$
>  <Compound>
COc1ccc(-c2nc(S(=O)(=O)c3ccc(C)cc3)c(S(C)(=O)=O)o2)cc1

>  <Assayed target>
NCI-H460 lung

>  <Label value>
true (1)

$$$$
>  <Compound>
O=C(CNc1nc(-c2ccccc2)cs1)Nc1ccccc1

>  <Assayed target>
NCI-H460 lung

>  <Label value>
true (1)

$$$$
>  <Compound>
Brc1ccc(/C=C/c2n(Cc3ccc4ccccc4c3)c3ccccc3[n+]2Cc2ccc3ccccc3c2)cc1

>  <Assayed target>
NCI-H460 lung

>  <Label value>
true (1)

$$$$
>  <Compound>
COc1ccsc1/C=N/NC(=O)c1[nH]c2ccc(Br)cc2c1-c1ccccc1

>  <Assayed target>
NCI-H460 lung

>  <Label value>
true (1)

$$$$
>  <Compound>
CCOc1ccc(/C=N/NC(=O)Cn2nc(Cc3ccc([N+](=O)[O-])cc3)c3onc(C)c3c2=O)cc1

>  <Assayed target>
NCI-H460 lung

>  <Label value>
true (1)

$$$$
>  <Compound>
COc1ccc(-c2ccc(SCC(=O)Nc3ccc(C#N)cc3)nn2)cc1

>  <Assayed target>
NCI-H460 lung

>  <Label value>
false (0)

$$$$
>  <Compound>
Cc1cc(C)nc(SCC(=O)Nc2ccc(S(N)(=O)=O)cc2)n1

>  <Assayed target>
NCI-H460 lung

>  <Label value>
false (0)

$$$$
>  <Compound>
NC1=NC(c2ccccc2Cl)N=C(Nc2nn[nH]n2)N1 (stereo not given)

>  <Assayed target>
NCI-H460 lung

>  <Label value>
false (0)

$$$$
>  <Compound>
CCCCCCCCCCCCCCCCCCCC(=O)NCCc1c[nH]c2ccc(OC(=O)NOCCOCCOCCOCCOCCOCCOCCOCCOCCOCCOCCOCCOCCOCCOCCOCCOCCOCCOCCOCCOCCOCCOC)cc12

>  <Assayed target>
NCI-H460 lung

>  <Label value>
false (0)

$$$$
>  <Compound>
O=C1Nc2ccc(F)cc2/C1=C/c1cccc(OCc2ccccn2)c1

>  <Assayed target>
NCI-H460 lung

>  <Label value>
false (0)

$$$$
>  <Compound>
CS(=O)(=O)Nc1ccc(-c2ccc3c(c2)ncn3-c2ccc(NC(=O)Nc3ccc(Cl)c(C(F)(F)F)c3)cc2)cc1

>  <Assayed target>
NCI-H460 lung

>  <Label value>
true (1)

$$$$
